Values of pIC50 reported for Choline kinase (Saccharomyces cerevisiae) appear below.
Note on pIC50: it is the negative log10 of concentration, concentration in mol/L.

Prompt line: Which pIC50 value is on record for c1cc(Cn2ccc(=[N+]3CCCC3)cc2)ccc1CCc1ccc(Cn2ccc(=[N+]3CCCC3)cc2)cc1 ?
Response line: 4.70

Prompt line: Please give the result for C[N+](C)=c1ccn(Cc2ccc(CCc3ccc(Cn4ccc(=[N+](C)C)cc4)cc3)cc2)cc1 too.
Response line: 4.77

Prompt line: Please give the result for Cc1cc[n+](Cc2ccc(CCc3ccc(C[n+]4ccc(C)cc4)cc3)cc2)cc1 too.
Response line: 4.00

Prompt line: Please give the result for O=C(O)c1cc[n+](Cc2ccc(CCc3ccc(C[n+]4ccc(C(=O)O)cc4)cc3)cc2)cc1 too.
Response line: 3.86

Prompt line: Please give the result for c1cc(Cn2ccc(=[N+]3CCCCCC3)cc2)ccc1CCc1ccc(Cn2ccc(=[N+]3CCCCCC3)cc2)cc1 too.
Response line: 4.82
